Tested on: T48 cells
Test: Fluorescent apoptotic assay (Staurosporine, MR(DEVD)2) in TrkB stably transfected T48 cells
Assay type: cell-based, murine
Details: Mus musculus; T48 cells, FIG. 5; read-out: effective concentration at which 50% (EC50) of the cells are protected from apoptosis

[
  {
    "compound": "O=C1C[C@@H](c2ccccc2)Oc2cc(O)cc(O)c21 [Pinocembrin, reference compound]",
    "test.target": "T48 cells",
    "unit.descriptor": "nM",
    "EC50": 100
  },
  {
    "compound": "Oc1cc(O)c2c(c1)O[C@H](c1ccc(O)c(O)c1)[C@@H](O)C2 [Cianidanol]",
    "test.target": "T48 cells",
    "unit.descriptor": "nM",
    "EC50": 100
  },
  {
    "compound": "COc1ccc(-c2cc(=O)c3c(O)cc(O)cc3o2)cc1O [Diosmetin, reference compound]",
    "test.target": "T48 cells",
    "unit.descriptor": "nM",
    "EC50": 500
  }
]
